- target.or.test.system: DGKα (hDGKalpha(1-735)-N-His) (Homo sapiens, UniProt P23743)
- Sequence (P23743 whole entry): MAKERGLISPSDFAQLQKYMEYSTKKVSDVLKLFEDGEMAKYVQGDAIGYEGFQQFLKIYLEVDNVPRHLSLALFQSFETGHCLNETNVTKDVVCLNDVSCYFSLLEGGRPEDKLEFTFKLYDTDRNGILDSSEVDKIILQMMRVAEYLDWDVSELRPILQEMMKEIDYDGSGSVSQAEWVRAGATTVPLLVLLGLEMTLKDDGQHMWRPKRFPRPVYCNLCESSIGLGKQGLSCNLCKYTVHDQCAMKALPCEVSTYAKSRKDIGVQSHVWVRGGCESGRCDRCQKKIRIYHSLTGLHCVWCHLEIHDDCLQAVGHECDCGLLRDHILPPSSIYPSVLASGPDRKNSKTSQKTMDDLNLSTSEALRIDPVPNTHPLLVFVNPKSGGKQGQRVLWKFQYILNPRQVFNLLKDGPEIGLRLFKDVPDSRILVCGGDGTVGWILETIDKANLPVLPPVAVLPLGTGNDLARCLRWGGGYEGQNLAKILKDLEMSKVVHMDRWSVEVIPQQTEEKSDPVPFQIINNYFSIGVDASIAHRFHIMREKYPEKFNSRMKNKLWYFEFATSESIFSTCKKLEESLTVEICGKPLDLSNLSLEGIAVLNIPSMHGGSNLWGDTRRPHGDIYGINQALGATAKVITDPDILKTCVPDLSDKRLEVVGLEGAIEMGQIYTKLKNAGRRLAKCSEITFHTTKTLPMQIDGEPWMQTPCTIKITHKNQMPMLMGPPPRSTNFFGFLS
Lab note: cut-off is 10 µM. Strictly less in IC50 is condition met. Exactly 10 µM or more is condition not met.

Field: example entries. Status: answers known.
[
  {
    "compound": "CC(C)(C#N)c1nnc(-c2ccc3c(c2)N(Cc2ccc(-c4ccc(OC(F)(F)F)nc4)cc2)C(=O)[C@@H](N)CS3(=O)=O)o1",
    "class.label": "condition not met"
  },
  {
    "compound": "N[C@H]1CS(=O)(=O)c2ccc(-c3noc(-c4cccnc4C(F)(F)F)n3)cc2N(Cc2ccc(-c3noc(C4CC4)n3)cc2)C1=O",
    "class.label": "condition not met"
  }
]

Threshold test, IC50 < 10 µM: COCC1CN(c2nnc(-c3ccc4c(c3)N(Cc3ccc(-c5noc(C(F)(F)F)n5)cc3)C(=O)[C@@H](N)CS4(=O)=O)o2)CCO1 (stereo partly drawn)
condition not met

Threshold test, IC50 < 10 µM: CC(N)(c1nnc(-c2ccc3c(c2)N(Cc2ccc(-c4noc(CC(F)(F)F)n4)cc2)C(=O)[C@@H](N)CS3(=O)=O)o1)C(F)(F)F (stereo partly drawn)
condition not met

Threshold test, IC50 < 10 µM: N[C@H]1CS(=O)(=O)c2ccc(-c3nnc(C4(CO)CCCO4)o3)cc2N(Cc2ccc(-c3ccc(C(F)(F)F)cc3)cc2)C1=O (stereo partly drawn)
condition not met

* * *

Assay system DGKζ (hDGKzeta(1-928)-N-His) (Homo sapiens); read-out recorded as pIC50.
Answers are plain numbers, as −log10 of the molar value.

Example entries and their recorded answers appear below.
[
  {
    "compound": "N[C@H]1CS(=O)(=O)c2ccc(-c3nnc(C4(C5CC5)CCCO4)o3)cc2N(Cc2ccc(-c3noc(C(F)(F)F)n3)cc2)C1=O (stereo partly drawn) [Example 36]",
    "property": "pIC50",
    "readout.number": 6.02
  },
  {
    "compound": "CC(C)(C#N)c1nnc(-c2ccc3c(c2)N(Cc2ccc(-c4noc(C(F)(F)F)n4)cc2)C(=O)[C@@H](N)CS3(=O)=O)o1 [Example 38]",
    "property": "pIC50",
    "readout.number": 5.94
  }
]

Turning to the following compound.
If you can, please state the reported pIC50 value of N[C@H]1CS(=O)(=O)c2ccc(-c3nnc(N4CCC(F)(F)CC4)o3)cc2N(Cc2ccc(-c3nnc(C(F)(F)F)o3)cc2)C1=O [Example 71] .
6.05

* * *

Assay system DGKα (hDGKalpha(1-735)-N-His) (Homo sapiens); read-out recorded as IC50.
Numbers only, in µM.

[
  {
    "compound": "N[C@H]1CS(=O)(=O)c2cc(F)c(-c3noc(C4(CO)CCCO4)n3)cc2N(Cc2ccc(-c3noc(C(F)(F)F)n3)cc2)C1=O (stereo partly drawn) [Example 18]",
    "property": "IC50",
    "readout.number": 3.87
  },
  {
    "compound": "CC(C)(C#N)c1nnc(-c2ccc3c(c2)N(Cc2ccc(-n4nnc(C(F)(F)F)n4)cc2)C(=O)[C@@H](N)CS3(=O)=O)o1 [Example 120]",
    "property": "IC50",
    "readout.number": 13.5
  },
  {
    "compound": "C[C@@](N)(c1nnc(-c2ccc3c(c2)N(Cc2ccc(-c4noc(C(F)(F)F)n4)cc2)C(=O)[C@@H](N)CS3(=O)=O)o1)C(F)(F)F [Example 52]",
    "property": "IC50",
    "readout.number": 25.2
  }
]

If you can, please state the reported IC50 value of CC(C)(C#N)c1nnc(-c2ccc3c(c2)N(Cc2ccc(-c4cc(OC(F)(F)F)ccn4)cc2)C(=O)[C@@H](N)CS3(=O)=O)o1 [Example 126] .
4.38

* * *

- Tested on: primary human T-cells
- protocol.text: IL2 secretion measurements (24 h, CD3-stimulated T-cells, PBS counter screen)
- Format: cell-based
- test.context: CD3 condition; normalised to DMSO (neutral) and 20 μM reference compound A1 = 100%
property: Emax IL2 (% activation)

Example entries and their recorded answers appear below.
[
  {
    "compound": "CC(C)(C#N)c1nnc(-c2ccc3c(c2)N(Cc2ccc(-c4nc(C(F)(F)F)co4)cc2)C(=O)[C@@H](N)CS3(=O)=O)o1",
    "target.or.test.system": "primary human T-cells",
    "property": "Emax IL2 (% activation)",
    "result": "144 % activation"
  },
  {
    "compound": "N#CC1CN(c2nnc(-c3ccc4c(c3)N(Cc3ccc(-c5noc(C(F)(F)F)n5)cc3)C(=O)[C@@H](N)CS4(=O)=O)o2)CCO1 (stereo partly drawn)",
    "target.or.test.system": "primary human T-cells",
    "property": "Emax IL2 (% activation)",
    "result": "152 % activation"
  }
]

Would you be so kind as to report Emax IL2 (% activation) for each listed record?
1. N[C@H]1CS(=O)(=O)c2ccc(-c3nnc(N4CCOC5(CC5)C4)o3)cc2N(Cc2ccc(-c3noc(C(F)(F)F)n3)cc2)C1=O
2. N[C@H]1CS(=O)(=O)c2cc(F)c(-c3noc(N4CCOC(F)(F)C4)n3)cc2N(Cc2ccc(-c3ccc(C(F)(F)F)cc3)nc2)C1=O
3. COc1ccc(-c2ccc(CN3C(=O)[C@@H](N)CS(=O)(=O)c4ccc(-c5nnc(N(C)CC(F)(F)F)o5)cc43)cc2)cc1
4. CC1(c2nnc(-c3ccc4c(c3)N(Cc3ccc(-c5noc(C(F)(F)F)n5)cc3)C(=O)[C@@H](N)CS4(=O)=O)o2)COC1
5. COc1ccc(-c2ccc(CN3C(=O)[C@@H](N)CS(=O)(=O)c4ccc(-c5nnc(C(C)(C)C#N)o5)cc43)cc2)nc1
6. COc1ccc(-c2ccc(CN3C(=O)[C@@H](N)CS(=O)(=O)c4cc(F)c(-c5noc(C6(N)COC6)n5)cc43)cc2)cc1

1: 170 % activation; 2: 26 % activation; 3: 66 % activation; 4: 268 % activation; 5: 97 % activation; 6: 96 % activation

Would you be so kind as to report Emax IL2 (% activation) for each listed record?
1. COC(=O)N1CC2CC(c3nnc(-c4ccc5c(c4)N(Cc4ccc(-c6ccc(C(F)(F)F)cc6)cc4)C(=O)[C@@H](N)CS5(=O)=O)o3)(C2)C1
2. CC(C)(C#N)c1nnc(-c2ccc3c(c2)N(Cc2ccc(-n4nnc(C(F)(F)F)n4)cc2)C(=O)[C@@H](N)CS3(=O)=O)o1

["163 % activation", "135 % activation"]

Would you be so kind as to report Emax IL2 (% activation) for each listed record?
1. CC(C)(C#N)c1nnc(-c2ccc3c(c2)N(Cc2ccc(-c4ccc(C(F)(F)F)cn4)cc2)C(=O)[C@@H](N)CS3(=O)=O)o1
2. COC(=O)N1CC2CC(c3nnc(-c4ccc5c(c4)N(Cc4ccc(-c6ccc(C(F)(F)F)cn6)cc4)C(=O)[C@@H](N)CS5(=O)=O)o3)(C2)C1

1. 163 % activation
2. 188 % activation

* * *

- target.or.test.system: DGKζ (hDGKzeta(1-928)-N-His) (Homo sapiens)
- Sequence (Q13574 whole entry): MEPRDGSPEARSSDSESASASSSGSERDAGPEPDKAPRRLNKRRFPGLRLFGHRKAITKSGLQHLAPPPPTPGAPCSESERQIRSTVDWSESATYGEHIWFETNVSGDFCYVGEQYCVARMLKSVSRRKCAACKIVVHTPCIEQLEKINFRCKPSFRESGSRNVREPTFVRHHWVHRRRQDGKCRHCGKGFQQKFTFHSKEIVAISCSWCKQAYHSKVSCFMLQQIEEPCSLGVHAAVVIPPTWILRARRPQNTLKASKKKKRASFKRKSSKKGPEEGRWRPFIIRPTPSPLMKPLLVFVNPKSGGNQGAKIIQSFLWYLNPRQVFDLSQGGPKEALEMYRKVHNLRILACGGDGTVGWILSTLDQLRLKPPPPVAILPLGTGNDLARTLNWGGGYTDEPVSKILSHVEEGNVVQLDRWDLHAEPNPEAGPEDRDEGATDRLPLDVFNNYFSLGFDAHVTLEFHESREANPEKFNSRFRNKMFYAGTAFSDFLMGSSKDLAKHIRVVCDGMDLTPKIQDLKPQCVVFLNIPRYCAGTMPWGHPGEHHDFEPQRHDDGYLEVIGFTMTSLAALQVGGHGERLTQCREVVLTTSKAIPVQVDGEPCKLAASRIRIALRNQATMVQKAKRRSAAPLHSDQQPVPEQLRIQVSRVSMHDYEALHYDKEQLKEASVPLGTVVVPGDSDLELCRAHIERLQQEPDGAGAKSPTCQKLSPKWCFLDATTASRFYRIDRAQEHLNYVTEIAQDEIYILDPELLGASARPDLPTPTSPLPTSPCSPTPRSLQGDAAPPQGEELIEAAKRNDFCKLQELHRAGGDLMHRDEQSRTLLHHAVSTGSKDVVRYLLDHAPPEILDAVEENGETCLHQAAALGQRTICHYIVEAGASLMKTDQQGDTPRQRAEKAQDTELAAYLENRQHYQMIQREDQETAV
property: pIC50
Numbers only, as −log10 of the molar value.

[
  {
    "structure.as.smiles": "CC(C)(C#N)c1nnc(-c2ccc3c(c2)N(Cc2ccc(-c4cnc(C(F)(F)F)nc4)cc2)C(=O)[C@@H](N)CS3(=O)=O)o1",
    "pIC50": 5.83
  },
  {
    "structure.as.smiles": "CC(C)(C#N)c1nnc(-c2ccc3c(c2)N(Cc2ccc(-n4cc(C(F)(F)F)cn4)cc2)C(=O)[C@@H](N)CS3(=O)=O)o1",
    "pIC50": 6.13
  }
]

Turning to the following molecule.
If you can, please state the reported pIC50 value of CC1(Nc2nnc(-c3cc4c(cc3F)S(=O)(=O)C[C@H](N)C(=O)N4Cc3ccc(-c4noc(C(F)(F)F)n4)cc3)o2)CC(F)(F)C1 .
5.89

* * *

Assay system UniProtKB P23743; read-out recorded as IC50.

[
  {
    "structure.as.smiles": "CC(C)(C#N)c1nnc(-c2cc3c(cc2F)S(=O)(=O)C[C@H](N)C(=O)N3Cc2ccc(-c3ccc(C(F)(F)F)cn3)cc2)o1",
    "property": "IC50",
    "result": "11.1 nM"
  },
  {
    "structure.as.smiles": "C[C@@](N)(c1nnc(-c2ccc3c(c2)N(Cc2ccc(-c4noc(C(F)(F)F)n4)cc2)C(=O)[C@@H](N)CS3(=O)=O)o1)C(F)(F)F",
    "property": "IC50",
    "result": "63.6 nM"
  }
]

If you can, please state the reported IC50 value of CC(C)(C#N)c1nnc(-c2ccc3c(c2)N(Cc2ccc(-c4ccc(OC(F)(F)F)cn4)cc2)C(=O)[C@@H](N)CS3(=O)=O)o1 .
23.3 nM

Recorded values, source patent US20260138976A1.
